Taken from ChEMBL document CHEMBL5230100.

# Tested on: HT-29
# Run description: Antiproliferative activity against human HT-29 cells assessed as cell growth inhibition incubated for 72 hrs by MTT assay
# Type: functional, cell-based
# Condition details: ht-29

Structure smiles: CNC(=O)c1cc(Oc2ccc(NC(=O)Nc3ccc(Cl)c(C(F)(F)F)c3)cc2)ccn1
Experimental target: HT-29
IC50 (µM): 3.27

----------
# Tested on: SK-OV-3
# Run description: cells
# Type: functional, cell-based
# Condition details: Homo sapiens, SK-OV-3, 48 h
# Description: Antiproliferative activity against human SK-OV-3 cells assessed as cell growth inhibition incubated for 48 hrs by MTT assay
pIC50: −log10 of the molar value.
Quantity measured: pIC50

Structure smiles: Cc1ccc(Nc2ncnc3ccc(NC(=O)c4cc(OCc5ccccc5)c5c(c4)C(=O)c4cccc(OCc6ccccc6)c4C5=O)cc23)cc1
Quantity measured: pIC50
Numeric result: 4.90
